B1: Chromodomain-helicase-DNA-binding protein 4, residues 444 to 496; numbered along this chain, Q14839 (parent)
chain: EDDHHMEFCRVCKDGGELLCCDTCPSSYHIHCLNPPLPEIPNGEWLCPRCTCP

Variants of: B1
Assay: abundance fitness (aPCA) (normalised: wild type 0, dead -1); higher = more abundant; growth selection in yeast, the domain comes from the species named
Details: Homo sapiens
Grouping rule (abundance fitness): low = under -0.1, intermediate = from -0.1 up to 0.02, high = 0.02 and over

mutant_name=E44I class_assignment=low

// query Using the reported abundance fitness, which band applies to P38K ?
// result high
